- Tested on: Escherichia coli
- assay_info: Antibacterial activity against Escherichia coli NBRC 12734 after overnight incubation by microplate dilution method
- Assay type: functional
Peptide text beside a SMILES is read from it.
Record form. Attribute: MIC. Fill in for each entry.

1. CC(C)C[C@@H]1NC(=O)[C@H](CCCN)NC(=O)[C@H](C(C)C)NC(=O)[C@@H]2C[C@@H](N)CN2C(=O)[C@@H](Cc2ccccc2)NC(=O)[C@H](CC(C)C)NC(=O)[C@H](CCCN)NC(=O)[C@H](C(C)C)NC(=O)[C@@H]2CCCN2C(=O)[C@@H](Cc2ccccc2)NC1=O :: 25 µg/mL

Give one value of MIC per listed compound.
1. CC(C)C[C@@H]1NC(=O)[C@H](CCCN)NC(=O)[C@H](C(C)C)NC(=O)[C@@H]2C[C@H](N)CN2C(=O)[C@@H](Cc2ccccc2)NC(=O)[C@H](CC(C)C)NC(=O)[C@H](CCCN)NC(=O)[C@H](C(C)C)NC(=O)[C@@H]2CCCN2C(=O)[C@@H](Cc2ccccc2)NC1=O
2. CC(C)C[C@@H]1NC(=O)[C@H](CCCN)NC(=O)[C@H](C(C)C)NC(=O)[C@@H]2CCCN2C(=O)[C@@H](Cc2ccccc2)NC(=O)[C@H](CC(C)C)NC(=O)[C@H](CCCN)NC(=O)[C@H](C(C)C)NC(=O)[C@@H]2CCCN2C(=O)[C@@H](Cc2ccccc2)NC1=O [GRAMICIDIN S] (HELM PEPTIDE1{L.[dF].P.V.[Orn].L.[dF].P.V.[Orn]}$PEPTIDE1,PEPTIDE1,1:R1-10:R2$$$V2.0)
3. CCCCCCCC(=O)N[C@H]1C[C@H]2C(=O)N[C@@H](C(C)C)C(=O)N[C@@H](CCCN)C(=O)N[C@@H](CC(C)C)C(=O)N[C@H](Cc3ccccc3)C(=O)N3CCC[C@H]3C(=O)N[C@@H](C(C)C)C(=O)N[C@@H](CCCN)C(=O)N[C@@H](CC(C)C)C(=O)N[C@H](Cc3ccccc3)C(=O)N2C1

[out]
1: 25 µg/mL; 2: 25 µg/mL; 3: 50 µg/mL
